Below is a list of entries, each paired with its recorded self-cleavage kobs at 2500 uM GlcN6P value.
B1: glmS ribozyme (parent)
chain: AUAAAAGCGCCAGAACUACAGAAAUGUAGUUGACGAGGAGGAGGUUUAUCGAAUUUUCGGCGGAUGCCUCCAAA

- Variants of: B1
- PROTOCOL DETAILS: self-cleavage kobs at 2500 uM GlcN6P; higher = faster cleavage; RNA array
- STUDY CONDITIONS: with glucosamine-6-phosphate
Variants at the floor of the assay were thinned out.

Could you tell me which self-cleavage kobs at 2500 uM GlcN6P is on file for G9U G35A A36G G63U ?
< 1e-05 s⁻¹

Request the reported self-cleavage kobs at 2500 uM GlcN6P associated with G29C G59A G66C
< 1e-05 s⁻¹

Value lookup for self-cleavage kobs at 2500 uM GlcN6P; key = A12C G41C U49A
< 1e-05 s⁻¹

Request the reported self-cleavage kobs at 2500 uM GlcN6P associated with C11U U30C A39G A42G
0.000103 s⁻¹

Looking for the measured self-cleavage kobs at 2500 uM GlcN6P of G13C A15C G59A , can you help?
< 1e-05 s⁻¹

Look at this variant and give its reported self-cleavage kobs at 2500 uM GlcN6P. C10A U45C
< 1e-05 s⁻¹

If you can, please state the reported self-cleavage kobs at 2500 uM GlcN6P value of A15U U55G G66U .
7.43e-05 s⁻¹

Give the measured self-cleavage kobs at 2500 uM GlcN6P of G13C U45G U56A G63A U65C .
< 1e-05 s⁻¹

Reference source: the supplement of paper PMC7125110
